assaySystem: T1, Germicidin synthase (Gcs) R317A (Streptomyces coelicolor, UniProt Q9K464 1-389, R317A)
T1 sequence (looked up): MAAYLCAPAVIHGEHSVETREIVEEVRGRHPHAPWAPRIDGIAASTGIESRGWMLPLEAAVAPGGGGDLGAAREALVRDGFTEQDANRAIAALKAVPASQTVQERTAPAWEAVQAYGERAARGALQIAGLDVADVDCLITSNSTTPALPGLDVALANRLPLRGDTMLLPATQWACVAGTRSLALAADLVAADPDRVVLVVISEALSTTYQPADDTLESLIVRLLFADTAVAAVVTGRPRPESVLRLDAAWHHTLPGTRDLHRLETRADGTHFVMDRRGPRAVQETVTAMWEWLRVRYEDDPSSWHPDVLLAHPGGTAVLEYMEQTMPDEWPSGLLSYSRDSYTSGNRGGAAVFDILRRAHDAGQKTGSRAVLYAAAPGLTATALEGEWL
assayInfo: BLI
outcomeMeasure: pKd
Just the number, please; pKd means minus log10 of the concentration in mol/L.

Which pKd is listed for Acyl carrier protein AcpP (Sco2389), biotinylated (natural protein, Streptomyces coelicolor, UniProt P72393 1-82, looked up, biotin (EZ-Link NHS-LC-LC-biotin, 5:1 molar ratio of biotin to protein)) MAATQEEIVAGLAEIVNEIAGIPVEDVKLDKSFTDDLDVDSLSMVEVVVAAEERFDVKIPDDDVKNLKTVGDATKYILDHQA ? 6.79

Sourced from paper PMC3342439
